Numbers sourced from patent US6720424B1.

quantity-measured: melting point

Reported melting point ( CCCCCCCCCCCCCCCCCCCCCCOc1ccc(CCC(=O)Nc2ccc(SC)c(C(=O)O)c2)cc1 ) = 209 to 212 °C

Reported melting point ( CCCCCCCCCCCCCCCCCC(=O)Nc1ccc(CCC(=O)Nc2ccc(SC)c(C(=O)O)c2)cc1 ) = 257 to 260 °C

Reported melting point ( CCCCCCCCCCCCCCCCCCOc1ccc(CCC(=O)Nc2ccc([S+](C)[O-])c(C(=O)OC)c2)cc1 (stereo not shown) ) = 65 to 67 °C

Reported melting point ( CCCCCCCCCCCCCCCCCCOc1ccc(CCC(=O)N(CC(=O)O)c2ccc(SC)c(C(=O)OC)c2)cc1 ) = 102 to 106 °C

Reported melting point ( CCCCCCCCCCCCCCCCCCOc1ccc(CCC(=O)Nc2ccc(Oc3ccc(/C=C/C(=O)O)cc3)c(C(=O)O)c2)cc1 ) = 200 to 208 °C

Reported melting point ( CCCCCCCCCCCCCCCCCCOc1ccc(CC(=O)N(C)c2ccc(SCCO)c(C(=O)OC)c2)cc1 ) = 92.5 to 94 °C

Reported melting point ( CCCCCCCCCCCCCCCCCCOc1ccc(CCC(=O)Nc2ccc(Nc3cccc(C(=O)O)c3)c(C(=O)O)c2)cc1 ) = 235 to 240 °C
